- system.under.test: D816V Kit (Homo sapiens (Human), UniProt P10721, D816V)
- Sequence (P10721 26-976 D816V): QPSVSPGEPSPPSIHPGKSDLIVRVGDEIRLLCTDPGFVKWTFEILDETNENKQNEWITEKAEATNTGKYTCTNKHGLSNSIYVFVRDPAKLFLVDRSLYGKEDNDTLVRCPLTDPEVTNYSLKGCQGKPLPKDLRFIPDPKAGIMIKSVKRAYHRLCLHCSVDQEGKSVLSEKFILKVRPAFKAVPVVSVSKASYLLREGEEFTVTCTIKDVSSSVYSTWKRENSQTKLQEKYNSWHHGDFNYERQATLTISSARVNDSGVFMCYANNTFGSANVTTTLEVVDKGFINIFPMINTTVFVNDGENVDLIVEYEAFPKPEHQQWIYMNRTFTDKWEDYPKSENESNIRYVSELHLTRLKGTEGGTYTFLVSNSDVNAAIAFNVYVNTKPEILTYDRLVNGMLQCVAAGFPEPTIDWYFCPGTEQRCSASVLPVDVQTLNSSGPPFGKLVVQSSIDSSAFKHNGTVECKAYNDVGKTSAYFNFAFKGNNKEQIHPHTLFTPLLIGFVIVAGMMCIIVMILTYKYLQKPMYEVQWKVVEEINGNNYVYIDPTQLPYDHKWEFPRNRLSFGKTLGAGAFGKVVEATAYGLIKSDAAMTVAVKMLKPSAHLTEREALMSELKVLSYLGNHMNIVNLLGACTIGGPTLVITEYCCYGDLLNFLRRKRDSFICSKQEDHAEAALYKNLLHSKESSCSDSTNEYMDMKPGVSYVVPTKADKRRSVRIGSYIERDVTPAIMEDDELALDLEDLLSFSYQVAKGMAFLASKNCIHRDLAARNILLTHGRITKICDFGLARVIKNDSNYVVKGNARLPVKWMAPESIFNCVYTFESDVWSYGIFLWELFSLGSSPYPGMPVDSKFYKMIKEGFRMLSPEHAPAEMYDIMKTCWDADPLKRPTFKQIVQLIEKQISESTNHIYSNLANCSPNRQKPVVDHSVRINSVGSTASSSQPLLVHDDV
- assay.explanation: Kit D816V assay at Km (Caliper electrophoretic mobility shift)
- Format: biochemical
- condition: D816V Kit 0.5 nM, 15 uM ATP (Km), 1 uM Srctide, 25 C, 90 minutes; read-out: INH-KITD816V ENZ-KM IC50 (nM) (Num)
experimental.endpoint: IC50

# annotated cases, reported IC50 shown
>>> print(df.to_string())
                                   compound  experimental_endpoint         result
0  COc1cc2ncnc(N3CCN(c4ncc(Cc5cccc(C(N)=O)c5)cn4)CC3)c2cc1OC                   IC50  1.01 to 10 nM
1  COc1cc2ncnc(N3CCN(c4ncc(Nc5cccnc5)cn4)CC3)c2cc1OC                   IC50   10 to 100 nM
2  COc1cc2ncnc(N3CCN(c4ncc(COc5ccccc5)cn4)CC3)c2cc1OC                   IC50  1.01 to 10 nM

Provide value of IC50 for this record tested with D816V Kit (Homo sapiens (Human), UniProt P10721, D816V): COc1cc2ncnc(N3CCN(c4ncc(Cc5ccccc5)cn4)CC3)c2cc1OCC1CCNCC1
< 1 nM

Provide value of IC50 for this record tested with D816V Kit (Homo sapiens (Human), UniProt P10721, D816V): CN1CCC(COc2ccc3ncnc(N4CCN(c5ncc(Cc6ccccc6)cn5)CC4)c3c2)CC1
1.01 to 10 nM

Provide value of IC50 for this record tested with D816V Kit (Homo sapiens (Human), UniProt P10721, D816V): COc1cc2ncnc(N3CCN(c4ncc(Cc5ccccc5)cn4)CC3)c2cc1OC1CCNC1 (centres unmarked)
1.01 to 10 nM

###

Listed here: items and their measured IC50.
- system.under.test: D816V Kit (Homo sapiens (Human), UniProt P10721, D816V)
- assay.explanation: Kit D816V assay at Km (Caliper electrophoretic mobility shift)
- Type: biochemical
- condition: D816V Kit 0.5 nM, 15 uM ATP (Km), 1 uM Srctide, 25 C, 90 minutes; read-out: INH-KITD816V ENZ-KM IC50 (nM) (Num)

Form field: reported IC50 of COc1cc2ncnc(N3CCN(c4ncc(Cc5ccccc5)cn4)CC3)c2cc1OCC1CCNC(=O)C1 (stereo not drawn) [Compound 109]
< 1 nM

Form field: reported IC50 of COc1cc2c(N3CCN(c4ncc(Cc5ccccc5)cn4)CC3)ncnc2cc1OCC1(C)COC1 [Compound 93]
1.01 to 10 nM

Form field: reported IC50 of COc1cc2ncnc(N3CCN(c4ncc(Cc5ccccc5)cn4)CC3)c2cc1OC1CCN(C)C1 (stereo not drawn) [Compound 92]
1.01 to 10 nM

###

Listed here: items and their measured IC50.
- system.under.test: wild type Kit (Homo sapiens (Human), UniProt P10721)
- Sequence (P10721 26-976): as the sequence (P10721 26-976 D816V) above, with V791D counted along it
- assay.explanation: Kit wild type assay at Km (Caliper electrophoretic mobility shift)
- Assay type: biochemical
- condition: wild type Kit 2 nM, 400 uM ATP (Km), 1 uM Srctide, 25 C, 90 minutes; read-out: INH-KITWT ENZ-KM IC50 (nM) (Num)

>>> df
                           molecular_string                         system_under_test  experimental_endpoint          result
0  COc1cc2ncnc(N3CCN(c4ncc(Cc5cccc(C#N)c5)cn4)CC3)c2cc1OC  wild type Kit (Homo sapiens (Human), UniProt P10721)                   IC50  100 to 1000 nM
1  COc1cc2ncnc(N3CCN(c4ncc(Cc5ccccc5)cn4)CC3)c2cc1OCC1(F)CCN(C)CC1  wild type Kit (Homo sapiens (Human), UniProt P10721)                   IC50         < 10 nM
2  CN1CCC(COc2ccc3ncnc(N4CCN(c5ncc(Cc6ccccc6)cn5)CC4)c3c2)CC1  wild type Kit (Homo sapiens (Human), UniProt P10721)                   IC50  100 to 1000 nM

Shifting focus to the compound that follows.
Form field: reported IC50 of COc1cc2ncnc(N3CCN(c4ncc(Cc5ccccc5)cn4)C[C@H]3C)c2cc1OC
> 1000 nM

###

Listed here: items and their measured IC50.
- system.under.test: D816V Kit (Homo sapiens (Human), UniProt P10721, D816V)
- assay.explanation: Kit D816V assay at Km (Caliper electrophoretic mobility shift)
- Type: biochemical
- condition: D816V Kit 0.5 nM, 15 uM ATP (Km), 1 uM Srctide, 25 C, 90 minutes; read-out: INH-KITD816V ENZ-KM IC50 (nM) (Num)

In [3]: df
Out[3]:
                                   molecule                         system_under_test         result
0  COc1cc2ncnc(N3CCN(c4ncc(Cc5ccc(OC(F)F)cc5)cn4)CC3)c2cc1OC [Compound 86]  D816V Kit (Homo sapiens (Human), UniProt P10721, D816V)  1.01 to 10 nM
1  COc1cc2ncnc(N3CCN(c4ncc(Nc5ccccn5)cn4)CC3)c2cc1OC [Compound 15]  D816V Kit (Homo sapiens (Human), UniProt P10721, D816V)   10 to 100 nM
2  COc1cc2ncnc(N3CCN(c4ncc(Cc5ccccc5)c(=O)[nH]4)CC3)c2cc1OCC1CCN(C)CC1 [Compound 127]  D816V Kit (Homo sapiens (Human), UniProt P10721, D816V)         < 1 nM
3  COc1cc2ncnc(N3C[C@H]4CC[C@@H](C3)N4c3ncc(Cc4ccccc4)cn3)c2cc1OC [Compound 48]  D816V Kit (Homo sapiens (Human), UniProt P10721, D816V)  1.01 to 10 nM
4  COc1cc2ncnc(N3CCN(c4ncc(Cc5ccccc5)c(=O)[nH]4)CC3)c2cc1OC[C@@H]1CCCN(C)C1 [Compound 128]  D816V Kit (Homo sapiens (Human), UniProt P10721, D816V)  1.01 to 10 nM

Form field: reported IC50 of COc1cc2ncnc(N3CCN(c4ncc(Cc5ccc(C(C)(C)C)cc5)cn4)CC3)c2cc1OC [Compound 81]
10 to 100 nM

Form field: reported IC50 of COc1cc2ncnc(N3CCN(c4ncc(Nc5ccccc5)cn4)CC3)c2cc1OC [Compound 13]
1.01 to 10 nM

Form field: reported IC50 of COc1cc2ncnc(N3CCN(c4ncc(OCc5ccccc5)cn4)CC3)c2cc1OC [Compound 37]
1.01 to 10 nM

Form field: reported IC50 of COc1cc2ncnc(N3CCN(c4ncc(Nc5ccccc5)cn4)[C@H](C)C3)c2cc1OC [Compound 30]
1.01 to 10 nM

Form field: reported IC50 of COc1cc2ncnc(N3CCN(c4ncc(OCc5ccc(C(C)(C)C)cc5)cn4)CC3)c2cc1OC [Compound 94]
> 100 nM

Form field: reported IC50 of COc1cc2ncnc(N3CCN(c4ncc(Cc5cccc(OC(F)(F)F)c5)cn4)CC3)c2cc1OC [Compound 101]
10 to 100 nM

Form field: reported IC50 of COc1cc2ncnc(N3CCN(c4ncc(Cc5ccccc5)cn4)C[C@@H]3C)c2cc1OC [Compound 27]
> 100 nM

Form field: reported IC50 of COc1cc2ncnc(N3CCN(c4ncc(OCc5ccccc5C)cn4)CC3)c2cc1OC [Compound 65]
10 to 100 nM

###

Listed here: items and their measured IC50.
- system.under.test: D816V Kit (Homo sapiens (Human), UniProt P10721, D816V)
- assay.explanation: Kit D816V assay at Km (Caliper electrophoretic mobility shift)
- Format: biochemical
- condition: D816V Kit 0.5 nM, 15 uM ATP (Km), 1 uM Srctide, 25 C, 90 minutes; read-out: INH-KITD816V ENZ-KM IC50 (nM) (Num)

# annotated cases, reported IC50 shown
                                   compound        result
0  COc1cc2ncnc(N3CCN(c4ncc(Cc5cccc(C#N)c5)cn4)CC3)c2cc1OC [Compound 46]  10 to 100 nM
1  COc1cc2ncnc(N3CCN(c4ncc(Cc5ccccc5)c(=O)[nH]4)CC3)c2cc1OCC1CNCCO1 (centres unmarked) [Compound 119]        < 1 nM
2  COc1cc2ncnc(N3CCN(c4ncc(O[C@@H](C)c5ccccc5)cn4)CC3)c2cc1OC [Compound 64]  10 to 100 nM
3  COc1cc2ncnc(N3CCN(c4ncc(Cc5ccccc5)cn4)C(=O)C3)c2cc1OC [Compound 21]      > 100 nM

Form field: reported IC50 of COc1cc2ncnc(N3CCN(c4ncc(Cc5ccccc5)c(N)n4)CC3)c2cc1OCC1CCN(C)CC1 [Compound 125]
< 1 nM

Form field: reported IC50 of CN1CCC(COc2ccc3ncnc(N4CCN(c5ncc(Cc6ccccc6)c(N)n5)CC4)c3c2)CC1 [Compound 95]
1.01 to 10 nM

Form field: reported IC50 of COc1cc2ncnc(N3CCN(c4ncc(OCc5ccccc5)cn4)[C@H](C)C3)c2cc1OC [Compound 60]
10 to 100 nM

Hey, just so you know, these numbers are from patent US9994552B2.
